- measured.on: T1, PD-1 (analyte in the BIAcore X100 assay) (UniProt Q15116 25-167, limits assumed)
- T1 construct: also called Programmed Cell Death 1
- measurement.description: SPR, BIAcore X100, antibody captured by anti-human IgG on CM5 chip, PD-1 as analyte
recorded.endpoint: kon (M⁻¹ s⁻¹)
The reply should contain only the number, in M⁻¹ s⁻¹.

// kon lookup, key: DFPD1-12 full-length anti-PD-1 monoclonal antibody (antibody, human IgG4 S228P, kappa, V domains shown, Expressed in HEK293E cells and purified on protein A) VH: QVQLVESGGGVVQPGRSLRLDCKASGITFSNYGMHWVRQAPGKGLEWVAVIWYDGSKKYYADSVKGRFTISRDNSKNTLFLQMNSLRAEDTAVYYCATNNDYWGQGTLVTVSS VL: DIQMTQSPSSLSASVGDRVTITCRASQSIHNYLDWYQQKPGKAPKLLIYNASTRATGVPSRFSGSGSGTDFTLTISSLQPEDFATYYCQQELHLPLTFGQGTKVEIKR
13300
